# IC50 against hCRTH2 receptor (Homo sapiens (Human), UniProt Q9Y5Y4), merged from multiple literature sources
# Sequence (Q9Y5Y4 whole entry): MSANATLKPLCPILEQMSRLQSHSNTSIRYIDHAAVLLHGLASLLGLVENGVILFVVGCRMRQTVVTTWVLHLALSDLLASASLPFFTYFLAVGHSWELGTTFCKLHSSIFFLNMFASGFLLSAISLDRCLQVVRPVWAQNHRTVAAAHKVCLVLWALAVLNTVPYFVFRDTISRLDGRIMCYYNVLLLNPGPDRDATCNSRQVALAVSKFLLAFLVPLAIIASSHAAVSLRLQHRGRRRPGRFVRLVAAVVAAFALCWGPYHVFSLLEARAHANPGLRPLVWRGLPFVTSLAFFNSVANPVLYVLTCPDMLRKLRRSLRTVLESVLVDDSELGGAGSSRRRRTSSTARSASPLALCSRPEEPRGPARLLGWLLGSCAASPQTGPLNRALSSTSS
Field: label. Allowed values: met (IC50 < 9 nM) or not met (IC50 >= 9 nM).

> print(dat)
                                    compound  class.name
 1  COc1ccc(CC(=O)O)cc1-c1ccc(F)c2c1CN(C(=O)C(C)Cc1cccnc1)CC2 (racemic)     not met
 2  COc1ccc(C(C)C(=O)O)cc1-c1ccc(F)c2c1CN(C(=O)OCc1ccccc1)CC2 (racemic)     not met
 3  CCC(=O)N(Cc1ccc(OC)cc1)c1cccc(-c2nnn[nH]2)c1     not met
 4  CCC(=O)N(Cc1ccc(-c2cccnc2)cc1)c1cc(F)cc(-c2nnn[nH]2)c1     not met
 5  CCOc1ccc(CC(=O)O)cc1-c1ccc(F)c2c1CN(C(=O)OCc1ncc(C)cc1F)CC2         met
 6  O=C(O)COc1ccc(Cl)cc1C1c2scnc2CCN1C(=O)NCc1ccccc1F (racemic)     not met
 7  CCOc1cc(CC(=O)O)ccc1-c1ccc(F)c2c1CN(C(=O)OCC1CC1)CC2         met
 8  CCC(=O)N(Cc1ccc2ncccc2c1)c1cccc(-c2nnn[nH]2)c1     not met
 9  COc1ccc(CC(=O)O)cc1-c1c(F)cc(F)c2c1CN(C(=O)OCc1ccccc1)CC2         met
10  COc1ccc(CC(=O)O)cc1-c1ccc(F)c2c1CN(C(=O)/C=C/c1cc(C)nn1C)CC2     not met

----------
// compounds with reported IC50 on hCRTH2 receptor (Homo sapiens (Human), UniProt Q9Y5Y4), multi-publication
property name: IC50 (nM)

> print(dat)
                                   compound  reading
1  O=C(O)Cc1ccc(-c2ccc(F)c3c2CN(C(=O)[C@@H]2C[C@H]2c2ccccc2)CC3)c(OCC(F)(F)F)c1      1.4
2  O=C(O)CCCOc1ccc(F)cc1-c1cccc2c1CN(C(=O)OCc1ccccc1)CC2      289
3  CS(=O)(=O)c1ccc(CN(C(=O)C2CCCC2)c2cc(F)cc(-c3nnn[nH]3)c2)cc1      6.2
4  Cc1ccc(COC(=O)N2CCc3ncsc3C2c2cc(Cl)ccc2OCC(=O)O)c(C)c1 (racemic)      7.1

----------
pIC50: −log10 of the molar value.
pIC50 values for hCRTH2 receptor (Homo sapiens (Human)), compiled from several publications.
property name: pIC50

> print(dat)
                           molecular.string  property.name  qualifying.sign  reading
1  COc1ccc(CC(=O)O)cc1-c1ccc(F)c2c1CN(C(=O)CC(C)(C)c1ccc(F)cc1)CC2          pIC50                =     8.62
2  CCC(=O)N(Cc1ccc(OC(F)(F)F)cc1)c1cc(F)cc(-c2nnn[nH]2)c1          pIC50                =     8.03
3  COc1ccc(CC(=O)O)cc1Oc1ccc(NC(=O)NCc2ccccc2)cc1CN1CCOC1=O          pIC50                >     6.52
4  CCN(Cc1cc(-c2ncc(OC)cn2)ccc1-c1cc(CC(=O)O)ccc1OC)C(=O)C1CC1          pIC50                >     6.52
